Target: Gal(b1-3)[Fuc(a1-4)]GlcNAc(b1-2)Man(a1-3)[Gal(b1-3)[Fuc(a1-4)]GlcNAc(b1-2)Man(a1-6)]Man(b1-4)GlcNAc(b1-4)GlcNAc
Assay: glycan array binding signal (z-score within array); higher = stronger binding
Settings: glycan notation: IUPAC condensed, linker removed
The entries come from a sample that favours the strongest signals as a whole.
EXPERIMENTAL ENDPOINT: glycan array binding signal (z-score)
Lab note: record just the number, no unit beside it.

binder="CTLX (Homo sapiens), Q6UXS0 (protein) SLCPLFWMEFKGHCYRFFPLNKTWAEADLYCSEFSVGRKSAKLASIHSWEENVFVYDLVNSCVPGIPADVWTGLHDHRQEGQFEWTDGSSYDYSYWDGSQPDDGVHADPEEEDCVQIWYRPTSALRSWNDNTCSRKFPFVCKIPSLTIH" numeric_result=4.2
binder="CREG (Mus musculus), O88668 (protein) MAARAPELARSLLAALLAPALVALLVSPASGRGGRDHGDWDVDRRLPPLPPREDGPRVARFVTHVSDWGSLATISTIKEVRGWPFADIISISDGPPGEGTGEPYMYLSPLQQAVSDLQENPEATLTMSLAQTVYCRNHGFDPQSPLCVHIMMSGTVTKVNKTEEDYARDSLFVRHPEMKHWPSSHNWFFAKLKISRIWVLDYFGGPKVVTPEEYFNVTLQ" numeric_result=6.79
binder="HPA (Helix pomatia), Q2F1K8 (protein) MQAFYSGLLLLCVVAFAAAQRVQSGKIDCGNDAGWAKVPSDDPGRDNTRELAKNITFASPYCRPPVVLLSITQLDVEQSQNLRVIARLYSVSPTGFKASCYTWHNTKVYSMSISWISIENY" numeric_result=2.87

Please turn your attention to the following entry.
Req: Requested field: glycan array binding signal (z-score). Item: HHL-2 (Homo sapiens), P07307 (protein) MAKDFQDIQQLSSEENDHPFHQGEGPGTRRLNPRRGNPFLKGPPPAQPLAQRLCSMVCFSLLALSFNILLLVVICVTGSQSEGHRGAQLQAELRSLKEAFSNFSSSTLTEVQAISTHGGSVGDKITSLGAKLEKQQQDLKADHDALLFHLKHFPVDLRFVACQMELLHSNGSQRTCCPVNWVEHQGSCYWFSHSGKAWAEAEKYCQLENAHLVVINSWEEQKFIVQHTNPFNTWIGLTDSDGSWKWVDGTDYRHNYKNWAVTQPDNWHGHELGGSEDCVEVQPDGRWNDDFCLQVYRWVCEKRRNATGEVA
Resp: 0.043
